Tested on: HCT-15 colon
RUN DESCRIPTION: NCI tumour cell line growth inhibition, 48 h
QUANTITY MEASURED: TGI

# example entries with known answers
CCN(CC)CC(O)CNc1ccc(NCC2CO2)c2c1C(=O)c1ccccc1C2=O (centres undefined); 6.35 µM
O=[N+]([O-])c1cccc(/C=N\NS(=O)(=O)c2ccc(Cl)cc2)c1O; > 100 µM
CC(C)CS(=O)(=O)/C(=C(\c1ccc(Br)cc1)S(=O)(=O)CC(C)C)c1ccc(Br)cc1; > 100 µM
O=c1c2cc(Cl)ccc2oc2ccc(OCCCCCN3CCCCC3)cc12; 3.45 µM
Nc1c(C(=O)c2ccc(Cl)cc2)sc(Nc2ccccc2)c1-c1nc2ccccc2s1; > 100 µM
CCOC(=O)C(C(=O)OCC)=C1NC2(c3ccccc3Nc3ccc(C)cc32)C(C#N)S1 (centres undefined); 29.5 µM
c1ccc2c(C3CCN(CCN4CCOCC4)C3)c[nH]c2c1 (centres undefined); > 100 µM
COc1ccc(OC)c2sc(N3C(=O)/C(=C/c4ccc(Cl)cc4)N=C3c3ccccc3)nc12; > 100 µM
O=C1c2ccccc2-c2cccc3ccc(Cc4ccc5ccccc5c4)c1c23; > 100 µM
CC(C)(C)O/C=C1/C(=O)OC2C[C@@H](O[Si](C)(C)C(C)(C)C)CC12 (some centres undefined); > 100 µM

Give TGI for each of the items listed below.
1. OC1(CCc2ccccc2)COC(C(F)(F)F)(C(F)(F)F)C1 (centres undefined)
2. OC(CCN1CCCCC1)(c1ccccc1)c1ccccc1
3. COC(=O)CCc1cc(OC)c2c(c1)C(C(=O)OC)C(c1ccc(OC)c(OC)c1)O2 (centres undefined)
4. Cc1cc(C)c([O-])c(CN(C)CCN(C)Cc2cc(C)cc(C)c2[O-])c1.O=C([O-])c1cccc(C(=O)[O-])n1.[Ti+4]
5. COc1cc(OCc2nc3ccccc3n3cccc23)cc(OC)c1OC
6. COc1cc(/C=C(\C#N)c2nc3ccccc3o2)ccc1O
7. CC(C)(C#N)c1cc(Cn2cncn2)cc(C(C)(C)C#N)c1

Response:
1. > 100 µM
2. > 100 µM
3. > 100 µM
4. > 100 µM
5. > 100 µM
6. 42.6 µM
7. > 10000 µM

Required: TGI, one value per compound below.
1. COc1cc(/C=C/C(=O)CC(=O)/C=C/c2cc(OC)c(OC)c(OC)c2)cc(OC)c1OC
2. CCCCc1c2c(nc3c1CCC/C3=C\c1ccccc1)C(=O)CCC2
3. C=C1C(=O)O[C@H]2[C@H]1CC/C(CNC(=O)c1cc3cc(OC)ccc3[nH]1)=C\CC[C@@]1(C)O[C@@H]21
4. Cc1ccc(-n2cnc3c(N)nc(N)nc32)cc1
5. COc1cc2c[n+](C)c3c4cc5c(cc4ccc3c2cc1OC)OCO5
6. Cc1cc(C)nc(NS(=O)(=O)c2ccc(Nc3c4ccccc4nc4c(C(=O)NNCCO)cccc34)cc2)n1
7. CCN(CC)c1cc2c3c(c1)CCCN3CCC2

Response:
1: 12.7 µM; 2: 51.9 µM; 3: 2.23 µM; 4: > 100 µM; 5: > 100 µM; 6: > 100 µM; 7: > 10 µM

----------
Would you mind telling me the reported TGI of each entry?
System: OVCAR-4 ovarian
RUN DESCRIPTION: NCI tumour cell line growth inhibition, 48 h

CC(C)=CCCC(C)c1ccc(C)c2c1OCN(CC1CCNCC1)C2 (stereo unspecified); 30.7 µM
NNC(=O)/C(=C/c1ccc(Cl)c(Cl)c1)NC(=O)c1ccccc1; > 100 µM
O=C1c2ccccc2-c2c1c1ccccc1c(=O)n2CCCNCCCn1ccnc1; 28.1 µM
COC(=O)c1s/c(=N\C(=S)N(C)C)n(-c2ccccc2)c1C(=O)OC; > 100 µM
CN(C)C=Nc1cccc2nsnc12; > 100 µM
COC(=O)C(Cc1cn(C(C)=O)c2ccccc12)P(=O)(OC)OC (stereo unspecified); > 100 µM
CC1=C(C(=O)Nc2ccccc2C)C(c2ccc(Cl)c(Cl)c2)C(C(=O)Nc2ccccc2C)=C(C)N1; > 100 µM
CCOC(=O)C(N)C[S][Sn]([CH3])([CH3])[Cl] (stereo unspecified); > 100 µM

Go through the list and state TGI for each entry.
1. COc1ccc(/C=C2\CCC(CNc3cc(C)on3)C2=O)cc1 (stereo unspecified)
2. Nc1nc(N)c2cc(Sc3ccc4nc(N)nc(N)c4c3)ccc2n1
3. CC(=O)O[C@@H]1CC[C@@]2(C)C(CC[C@H]3[C@@H]4CC[C@H]([C@H](C)CCc5nc6ccc(C)cc6[nH]5)[C@@]4(C)CC[C@@H]32)C1 (stereo partly specified)
4. CC1C[C@@]2(c3ccccc3)C(=O)CCC[C@H]2N1 (stereo partly specified)
5. Cc1[nH]c2ccccc2c1C1Cc2ccccc2N1C(=O)/C=C\C(=O)O (stereo unspecified)
6. O=C(/C=C/c1ccc([N+](=O)[O-])o1)N1CCN(Cc2ccccc2)CC1

Response:
> 100 µM
> 100 µM
> 100 µM
> 100 µM
> 100 µM
29.7 µM

Hey, can you go through the list below and give me TGI for every item?
1. O=C(Nc1ccc(Cl)cc1)C(=O)C(C(=O)c1ccccc1-c1ccccc1)C1OC(=O)c2ccccc21 (stereo unspecified)
2. Cc1ccccc1NC(=O)N/C(N)=N/c1nc(-c2cccc([N+](=O)[O-])c2)cs1
3. CSc1ccc(C2=NN(C(=O)c3ccc(F)cc3)C(c3ccc(F)cc3)C2)cc1 (stereo unspecified)
4. COc1cc(OCc2ccc3nc(-c4ccccc4)c(Cl)nc3c2)cc(OC)c1OC

Response:
> 100 µM
> 100 µM
30.3 µM
> 100 µM

----------
Tested on: SW-620 colon
RUN DESCRIPTION: NCI tumour cell line growth inhibition, 48 h
Hi there, I'd appreciate the recorded TGI for every entry that follows.

Please review the entries below; each comes with its answer.
O=c1c2c(nc3n1CCS3)[nH]c1ccccc12; > 100 µM
OC(CCN1CCCCC1)(c1ccccc1)c1ccccc1; > 100 µM

# return TGI for each item in the list
1. CCOC(=O)Nc1nc2ccc(Cn3cccc3)cc2[nH]1
2. CCOC(=O)NNC(=O)C1CSC(c2ccccc2)N1C(C)=O (stereo not given)

Response:
["> 100 µM", "> 100 µM"]

Provide TGI for all items below, preserving their order.
1. Cc1ccccc1NC(=O)N/C(N)=N/c1nc(-c2cccc([N+](=O)[O-])c2)cs1
2. O=c1[nH]n(Cc2ccccc2Cl)c2ccc([N+](=O)[O-])cc12

Response:
1: > 100 µM; 2: > 100 µM

Provide TGI for all items below, preserving their order.
1. CCC(Sc1cc(Cl)c(C)cc1S(=O)(=O)Nc1nc(N)nc(N(C)C)n1)C(=O)O (stereo not given)
2. COc1cc(OC)c(/C=C/S(=O)(=O)Cc2cnc(OC)c(N)c2)c(OC)c1
3. COC1CC(C)C(OC)C2=CC(=O)C=C(NC(=O)/C(C)=C/C=C\C(C)C(OC(N)=O)/C(C)=C\C(C)C1OC)C2=O (stereo not given)
4. O=C1c2ccccc2-c2cccc3ccc(Cc4ccc5ccccc5c4)c1c23

Response:
["> 10 µM", "> 100 µM", "1.05 µM", "> 100 µM"]

----------
Please respond with reported GI50 for every item in the list.
Tested on: UO-31 renal
RUN DESCRIPTION: NCI tumour cell line growth inhibition, 48 h

Here's what some known entries look like.
CC(=O)[O-].CC(=O)[O-].[Pt+2].c1cscn1.c1cscn1; > 100 µM
COc1cc(Nc2nccc(Nc3ccc4c(C)[nH]nc4c3)n2)cc(OC)c1OC; 0.842 µM
Cc1cc(I)cc(CN(C)CCCN2CCSCC2)c1O; 26.4 µM
C=C1C(=O)O[C@H]2[C@H]1CC/C(CNC(=O)c1cc3cc(OC)ccc3[nH]1)=C\CC[C@@]1(C)O[C@@H]21; 1.27 µM
CC(C)=CCCC(C)c1ccc(C)c2c1OCN(CC1CCNCC1)C2 (configuration not stated); 12.8 µM

Batch request: GI50 for each of the following molecules.
1. CSc1ccc(C2=NN(C(=O)c3ccc(F)cc3)C(c3ccc(F)cc3)C2)cc1 (configuration not stated)
2. NOCC(=O)O

Response:
12.6 µM
> 100 µM

----------
Test system: SK-MEL-5 melanoma
RUN DESCRIPTION: NCI tumour cell line growth inhibition, 48 h
Record form. Attribute: TGI. Fill in for each entry.
Answers are plain numbers, in µM.

Solved entries (count: 2):
COc1cc(Nc2nccc(Nc3ccc4c(C)[nH]nc4c3)n2)cc(OC)c1OC; 5.96
O=C(Nc1ccc(Cl)cc1)C(=O)C(C(=O)c1ccccc1-c1ccccc1)C1OC(=O)c2ccccc21 (stereo not given); 32

Consider the additional compound presented here.
Prompt: Look up TGI: O=C(/C=C/c1ccc([N+](=O)[O-])o1)N1CCN(Cc2ccccc2)CC1
Response: 22.4

Data provenance: PubChem BioAssay (NCI)
